- System: KM12
- test: NCI tumour cell line growth inhibition, 48 h
The source made the active and inactive calls. Cut-off read from the data, not from the text of the source: active = GI50 up to about 1.1 µM and inactive = higher.
propertyMeasured: GI50

Oc1ccc[n+](Cc2ccccc2)c1 ... > 100 µM (inactive)

Req: Give the reported GI50 for N=C(N)NS(=O)(=O)c1ccc(NC(=O)c2ccc3nc4ccccc4c(N)c3c2)cc1 (system: KM12).
Resp: 74.6 µM (inactive)

Req: Provide the documented GI50 with KM12 as the system for CCc1c[n+]2c(cc1C1=CN3c4ccccc4[C@]45CCN6C/C(=C/CO)[C@H](C[C@H]64)[C@@H]([C@@H]1O)[C@H]35)-c1[nH]c3ccccc3c1CC2
Resp: > 50 µM (inactive)

Req: Provide value of GI50 for this record tested with KM12: CCCc1onc(CCC(=O)N(Cc2ccccc2)Cc2ccccc2)c1CC
Resp: > 100 µM (inactive)

Req: Test system KM12; read-out GI50; what value for COC(=O)c1ccc(OCc2ccc3oc(=O)c(-c4ccccc4)nc3c2)cc1 ?
Resp: > 100 µM (inactive)

Req: Report GI50 for CCOc1ccc(NC(=O)/C(Cc2nc3ccccc3nc2O)=N\O)cc1 tested on KM12.
Resp: > 100 µM (inactive)

Req: What reported GI50 corresponds to CC1=NN(C(=O)Nc2ccc(Cl)cc2)C(=O)C2CCC(=O)N12 (stereo not given) on KM12?
Resp: 28.9 µM (inactive)

Req: Entry Brc1ccc(-c2cn3ccncc3n2)cc1 , system KM12: what GI50 was measured?
Resp: > 100 µM (inactive)

Req: GET /values?readout=GI50&system=KM12&item= CS(=O)(=O)Nc1ccc(Nc2ccnc3ccc4[nH]ccc4c23)cc1
Resp: 11.6 µM (inactive)

Req: Item: CCOC(=O)c1cc(=O)c2ccnc3c2n1CCS3 Test system: KM12 Read-out: GI50 Value: ?
Resp: 40.9 µM (inactive)

* * *

- Test system: SN12C
- test: NCI tumour cell line growth inhibition, 48 h
Active and inactive are the calls of the source. No stated cut-off is given here; in the data, active = GI50 up to about 1.1 µM and inactive = higher.
propertyMeasured: GI50

COc1cc(/C=C/C(=N\NC(N)=S)c2sc(NNC(C)=O)nc2C)ccc1O ... > 100 µM (inactive)
CC(C)CN1CN(c2ccccc2)C2(CCN(CC(C)(c3ccc(F)cc3)C3OCCO3)CC2)C1=O (centres undefined) ... 5.75 µM (inactive)
Cc1nc2c(=O)n(C)ncc2[nH]1 ... > 100 µM (inactive)
Cc1c2ccccc2c(C)n2c1nc1ccccc12 ... 5.2 µM (inactive)
CCCc1onc(CCC(=O)N(Cc2ccccc2)Cc2ccccc2)c1CC ... > 100 µM (inactive)
O=C(CO[N+](=O)[O-])OCC(=O)c1ccccc1 ... > 100 µM (inactive)

Req: Quick one: GI50 of CCCCCCCCCCCCCCCCOCC(CCl)OP(=O)(O)OP(=O)(O)OCC1OC(n2ccc(N)nc2=O)C(O)C1O (centres undefined) ?
Resp: > 100 µM (inactive)

Req: Give the measured GI50 of CC(=O)NC1C(OCc2ccccc2)OC(CO)C(O)C1OCC(=O)N1CCCC1C(=O)N[C@@H](CCC(=O)NCCNCCNc1c2ccccc2nc2cccc([N+](=O)[O-])c12)C(N)=O (some centres undefined) .
Resp: 1.39 µM (inactive)

Req: I would be grateful if you could share the reported GI50 for C/C(=C/C(=O)N(C)c1ccccc1Cl)O[Si](C(C)C)(C(C)C)C(C)C .
Resp: 17 µM (inactive)
